Test system: SK-OV-3 ovarian
Experiment: NCI-60 one-dose screen, 48 h (100 = growth as untreated, 0 = no growth, -100 = all killed)
Conditions: 10 µM unless noted
About 83,000 compounds went through this panel and 20% of them were active in at least one assay; those are over-represented in the sample as a whole.
Classification by growth follows these ranges: lower band = under 30%, central band = from 30% up to 90%, upper band = 90% and over

Category lookup for the compound "O=C(Cn1c2c(sc1=O)[C@H]1[C@@H](O)[C@@H](O)[C@H](O)[C@@H]1CS2)N1CCOCC1"
upper band

Likewise for "O=C(/C=C/Nc1ccc(Cl)cc1)c1ccc2c(c1)Nc1ccccc1S2" ?
lower band

Likewise for "Cc1c(C(=O)NNC(=O)Nc2ccc(Cl)cc2)nnn1-c1ccc(Br)cc1" ?
central band

Likewise for "COc1ccc(/C=C2\C(=O)Nc3ccc(Cl)cc32)cc1OCc1ccccn1" ?
central band

Likewise for "Cc1ccc(-c2nc(C#N)c(S(=O)(=O)N3CCN(S(=O)(=O)c4ccc(Cl)cc4)CC3)o2)cc1" ?
central band

Likewise for "O=C(/C=C/Nc1ccc2oc(=O)ccc2c1)c1cc2cc(Br)ccc2oc1=O" ?
upper band

Likewise for "CC1=C(C#N)C2=NNCC(c3ccccc3)=NN2C(c2ccccc2)=C1" ?
upper band

Likewise for "CN1CCN(Cc2ccc(C(=O)Nc3cccc(C#Cc4cccc5[nH]nc(N)c45)c3)cc2C(F)(F)F)CC1" ?
lower band

---

Tested on: EKVX NSCLC
Assay: NCI-60 one-dose screen, 48 h (100 = growth as untreated, 0 = no growth, -100 = all killed)
Details: 10 µM unless noted
Compounds without any hit were thinned out: in the full panel of roughly 83,000, 20% have a hit.
Answer each item with its documented growth.
// units = %; emit number, no label

Can you look up the measured growth of "O=C(Cn1c(/C=C/c2ccccc2)nc2ccccc2c1=O)Nc1ccc(Cl)cc1" for me?
98.6

Likewise for "CN(C)CCn1c2ccccc2c2nc3cc4ccccc4cc3nc21" ?
36.8

Likewise for "CC1=C(C#N)C2=NNCC(c3ccccc3)=NN2C(c2ccccc2)=C1" ?
99.7

Likewise for "COc1cc(OC)c2c3nc4cc(C)c(C)cc4nc3n(CCN(C)C)c2c1" ?
89.9

Likewise for CCCn1cc(-c2nc(Nc3ccc(C(=O)NCCCCNc4cccc5c4C(=O)N(C4CCC(=O)NC4=O)C5=O)cc3)nc3[nH]ccc23)cn1 (stereo not drawn) ?
54.4

Likewise for COc1ccc(C2=NN(c3ccccc3)C(c3ccc(OCc4ccccc4)c(OC)c3)C2)cc1OC (stereo not drawn) ?
93

Likewise for "COc1cc(/C=C/C(=O)c2ccc(C)cc2)ccc1Oc1nc(Nc2ccc(F)cc2)nc(N(C)C)n1" ?
60.6

Likewise for CC1(C)CC[C@]2(C(=O)Nc3ccccc3)CC[C@]3(C)C(=CCC4[C@@]5(C)C[C@@H](O)[C@H](O)[C@@](C)(CO)C5CC[C@]43C)C2C1 (stereo partly drawn) ?
52.9

Likewise for "O=C(c1ccccc1)c1ccc2nc(-c3ccc(F)cc3)[nH]c2c1" ?
80.9

Likewise for "COc1ccc2[nH]c(O)c(N=NC(=O)COc3ccc(NC(=O)Nc4ccccc4)cc3)c2c1" ?
65.4

Likewise for C=C1CC[C@@H]2[C@]3(C)COC(c4cn[nH]c4-c4ccccc4)O[C@@H]3CC[C@@]2(C)[C@@H]1C/C=C1/C(=O)OCC1O (stereo partly drawn) ?
-45.2

Likewise for "CN(C)c1ccnc(CNCCSC2(c3ccccc3)c3ccccc3C=Cc3ccccc32)c1" ?
-24.3

Likewise for "CN(C)c1ccnc(NCCCSC(c2ccccc2)(c2ccccc2)c2ccccc2)c1" ?
35.5

Likewise for CCCS(=O)(=O)N1CCCC(C(=O)Nc2nc3ccc(NC(=O)c4ccc(F)c(OC)c4F)cc3s2)C1 (stereo not drawn) ?
39.7

Likewise for "Cc1ccc(NCC(=O)Cn2cc(COc3ccc(C=Nc4cnc5ccccc5c4)cc3)nn2)cc1" ?
106

Likewise for "O=c1onc(-c2cc3ccccc3nc2Cl)n1-c1cccc2ccccc12" ?
29.5

Likewise for "CC(=O)Nc1cccc(Nc2nccc(N[C@@H](C)c3ccccc3)n2)c1" ?
16.6

Likewise for C=C1CC[C@@H]2[C@]3(C)COC(c4cn[nH]c4-c4cccc(Cl)c4)O[C@@H]3CC[C@@]2(C)[C@@H]1C/C=C1/C(=O)OCC1O (stereo partly drawn) ?
8.03
